# experimental.system: Carbonic anhydrase 2 (Homo sapiens) (UniProt P00918)
# procedure.summary: CAII small-molecule binders, profiling panel, biochemical, small-molecule microarray, Alexa647-labelled CAII (AID 1122)
# test.conditions: CAII-A647 binding fluorescence, higher = more signal
Param threshold (0.7) applies to composite z-score; output Y when value >= threshold, N when value < threshold.

compound: COc1ccc([Si](C)(C)[C@H]2[C@H](CCO)O[C@@]3(C(=O)N(Cc4ccc(N5CCCCC5=O)cc4)c4ccccc43)[C@@H]2C)cc1
assigned.class: N

-- ask Reported composite z-score reaches at least 0.7 for "C=CC[C@]1(C(=O)O)N=C(c2ccc(OCCCO)cc2)O[C@H]1c1ccccc1N=[N+]=[N-]" ?
-- reply N

-- ask Input C=CC[C@@]1(C(=O)NCC(O)CO)N=C(c2ccc(OCCCO)cc2)O[C@@H]1c1ccccc1CN=[N+]=[N-] (some centres not stated)
-- reply Y

-- ask Same question, "Cc1ccc(S[C@]2(C(=O)O)CC(=O)N(Cc3cc(C(F)(F)F)cc(C(F)(F)F)c3)[C@@H]2c2ccc(CO)cc2I)cc1" this time
-- reply N

-- ask Would you kindly repeat that for "[N-]=[N+]=NCc1ccccc1C[C@@]1(C(=O)N2CCOCC2)N=C(c2ccc(OCCCO)cc2)O[C@@H]1c1ccccc1N=[N+]=[N-]" ?
-- reply Y

-- ask Queued: "COCCOC(=O)N1C(=O)[C@@]2(c3cc(C#CCNC(N)=O)ccc31)[C@H](c1ccc(OCCO)cc1)N1[C@H](c3ccccc3)[C@H](c3ccccc3)OC(=O)[C@H]1[C@@H]2C(=O)N1CCCCCCC1"
-- reply N

---

Would you mind telling me the reported z-score of each entry?
# procedure.summary: inhibitors of hydroxyurea-induced Chk1 phosphorylation, primary screen, imaging, HeLa, phospho-Chk1 antibody, percent positive cells (AID 1186)
# test.conditions: hydroxyurea-induced phospho-Chk1 immunofluorescence imaging, higher = more signal
Numbers only.

Completed entries (count: 5):
compound: CCOC(=O)C1=C[C@@H](c2ccccc2)N(S(=O)(=O)c2ccc(C)cc2)[C@H]1c1ccc(F)cc1
z-score: 0.0332

compound: C[C@H]1NC(=O)[C@@H](C)NC(=O)[C@@]23C(=O)N[C@@H](Cc4ccccc4)C2[C@H](C)[C@@]2(C)O[C@H]2C3/C=C/C/C=C\CNC1=O (stereo partly specified)
z-score: -0.318

compound: COCCOC(=O)N1C(=O)[C@@]2(c3cc(C#CCNC(N)=O)ccc31)[C@H](c1ccc(OCCO)cc1)N1[C@H](c3ccccc3)[C@H](c3ccccc3)OC(=O)[C@H]1[C@@H]2C(=O)N1CCCCCCC1
z-score: 0.174

compound: C=C(CCCC)/C(=C/C[C@H](OC(=O)c1ccncc1)c1cccc(OCCO)c1)c1cc(C(=O)OC)ccc1OC
z-score: -0.433

compound: CCOC(=O)C[C@H]1[C@H](OC(=O)Cc2ccc3c(c2)OCO3)[C@@H](NC(=O)c2ccc3ccccc3c2)c2cc(OCCCO)ccc2N1C(=O)Cc1ccc(OC)cc1
z-score: 0.407

-- ask Reported z-score, compound "CC1=C([C@H](O)CCc2ccccc2)[C@H](CO)[C@@H]2C(=O)N(Cc3ccccc3)C(=O)[C@@H]2C1" : ____
-- reply -0.698

---

# procedure.summary: MM1S myeloma cell viability, profiling panel, resazurin fluorescence, basal, 24 h, PK04 Diversity Set (AID 1174);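 also: MM1S multiple myeloma cell line; test concentration not given here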
# test.conditions: higher = more signal, called active from +8 up or from −8 down
experimental.endpoint: z-score
Numbers only.

compound: C=C(C(=O)CC[C@H](OC(=O)c1ccccc1-c1ccccc1C(=O)O)c1ccc(CO)o1)C(C)C
z-score: 0.192
--
compound: COc1cc(CO)cc(I)c1O[C@H]1C=C(C(=O)NCCO)C[C@@H](N(CC2CCCCC2)C(=O)c2cc3ccccc3oc2=O)[C@@H]1O
z-score: 0.308
--
compound: CN(C)CCCC[C@@H]1NC(=O)[C@@H]2C[C@H](C(=O)O)[C@H](c3ccc(O)cc3)N2C1=O
z-score: 1.2

Fill in z-score for each of the 5 compounds listed.
1. O=C1OCC=C[C@H]2OC34C=CCN(Cc5ccccc5)C(=O)[C@H]3N(CCO)C(=O)[C@@H]4[C@@H]12 (some centres undefined)
2. O=C(CS)NCCCCCCNC(=O)[C@@H]1C[C@@H]2C(=O)N[C@@H](Cc3ccccc3)C(=O)N2[C@@H]1c1ccc(O)cc1
3. [N-]=[N+]=Nc1ccccc1C[C@@]1(C(=O)N2CCOCC2)N=C(c2ccc(OCCCO)cc2)O[C@@H]1c1ccccc1N=[N+]=[N-]
4. C=CC[C@]1(C(N)=O)N=C(c2ccc(OCCCO)cc2)O[C@H]1c1ccccc1CN=[N+]=[N-]
5. COc1cccc([C@@H]2[C@@H](C)CC[C@H]3C(=O)N(C)[C@@H](C(C)C)C(=O)N23)c1

-- reply
1: 1.6; 2: 0.0515; 3: -1.93; 4: 1.06; 5: 0.708

# batch: return z-score for each of the 7 compounds below
1. COC(=O)C1=C(C)N(Cc2ccccc2)c2c(C(=O)OC)c(C(=O)OC)c(C(=O)OC)c(=O)n2[C@@H]1c1ccccc1
2. C=CC[C@]1(C(=O)N2CCCCC2)N=C(c2ccc(OCCCO)cc2)O[C@H]1c1ccccc1N=[N+]=[N-]
3. CCc1cccc(NC(=O)O[C@H]2[C@H](OC(=O)Nc3ccccc3)[C@@H](OC(=O)Nc3ccccc3)[C@@H](OC)O[C@@H]2CO)c1
4. C#C[C@H](O[Si](C#Cc1ccccc1)(C(C)C)C(C)C)c1ccccc1
5. COc1ccc([Si](C)(C)[C@H]2[C@H](CC(=O)N3Cc4ccccc4C[C@H]3CO)O[C@@]3(C(=O)N(Cc4cccc(N5CCOC5=O)c4)c4ccccc43)[C@@H]2C)cc1
6. CC(C)C[C@@H]1NC(=O)[C@H]2C[C@@H](C(=O)NCCCCCC[N+](C)(C)C)[C@@H](c3ccc(O)cc3)N2C1=O
7. COCCOC(=O)N1C(=O)[C@@]2(c3cc(C#CC4=CCCCC4)ccc31)[C@H](C(=O)NC[C@H](O)c1ccccc1)[C@H]1C(=O)O[C@H](c3ccccc3)[C@H](c3ccccc3)N1[C@@H]2c1ccccc1OCCO

-- reply
1: -0.364; 2: -1.91; 3: -5.58; 4: -0.633; 5: -1.71; 6: 0.771; 7: -4.83

Quick batch: z-score for everything below.
1. CCCC/C=C/[C@H]([C@@H](O)Cc1ccccc1)N(CC#Cc1ccccc1)Cc1ccccc1Br
2. O=C(N1CCCCC1)[C@@]1(CCS(=O)(=O)c2ccccc2)N=C(c2ccc(OCCCO)cc2)O[C@H]1c1ccccc1
3. O=C1c2ccccc2[C@](Cc2ccccc2I)(C(=O)O)[C@H](c2ccc(CO)cc2)N1C1CCCCC1
4. CO[C@H]1O[C@H](CO)[C@@H](OC(=O)Nc2ccc3c(c2)OCO3)[C@H](OC(=O)Nc2ccccc2)[C@@H]1OC(=O)Nc1ccccc1
5. CCCCCCc1nc(-c2cc(C)c(OC)c(C)c2)cc2c1[Si](C(C)C)(C(C)C)O[C@H]2c1ccccc1
6. COCCOC(=O)N1C(=O)[C@@]2(c3cc(C#CCC(C(=O)OC)C(=O)OC)ccc31)[C@H](C(=O)N1CCN(c3ncccn3)CC1)[C@H]1C(=O)O[C@H](c3ccccc3)[C@H](c3ccccc3)N1[C@@H]2c1ccc(O)cc1
7. CN1C2C=C(c3ccc(CO)cc3)C(C3C(=O)N(C(N)=O)C(=O)C32)C1c1cccs1 (centres undefined)

-- reply
[0.579, -2.91, 1.8, -1.24, 0.0808, 0.805, 1.05]

---

I'd appreciate it if you could supply z-score values for the items below.
# procedure.summary: MM1S myeloma cell viability, profiling panel, resazurin fluorescence, basal, 24 h, PK04 Diversity Set (AID 1174);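 also: MM1S multiple myeloma cell line; test concentration not given here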
# test.conditions: higher = more signal, called active from +8 up or from −8 down
One number for each entry.

molecule: [N-]=[N+]=NCc1ccccc1[C@H]1OC(c2ccc(OCCCO)cc2)=N[C@@]1(Cc1ccccc1N=[N+]=[N-])C(=O)NCc1ccccc1
z-score: -2.31

molecule: C=CCN1C(=O)[C@@]2(O[C@@H](CCn3cc([C@H](O)c4ccccc4)nn3)[C@H]([Si](C)(C)c3ccc(OC)cc3)[C@H]2C)c2cc(N3CCOC3=O)ccc21
z-score: -0.365

molecule: COCCCNC(=O)[C@@]1(Sc2ccc(C)cc2)CC(=O)N(Cc2cc(C(F)(F)F)cc(C(F)(F)F)c2)[C@@H]1c1ccc(CO)cc1I
z-score: -2.01

molecule: CO[C@H]1COC(=O)[C@@H](OCc2ccccc2)C=C[C@H](C)[C@@H](OC)COC(=O)[C@H](OCc2ccccc2)C=C[C@@H]1C
z-score: 1.6

molecule: O=C1C2C=CC(C(O)c3ccccc3)N(n3cnnc3)C2C(=O)N1Cc1ccccc1 (configuration not stated)
z-score: -0.468

molecule: COc1cc(CO)cc(I)c1O[C@H]1C=C(C(=O)NCCO)C[C@@H](NCCc2c[nH]c3ccccc23)[C@@H]1O
z-score: 0.221

In the following, a different molecule is considered.
-- ask Name the reported z-score value associated with the molecule "COc1ccc(-c2cc3c(c(-c4ccccc4)n2)[Si](C(C)C)(C(C)C)O[C@H]3c2ccccc2)cn1"
-- reply 0.117
